Reference source for all entries: PubChem BioAssay (NCI)

- Test system: HCC-2998 colon
- Assay Protocol: NCI-60 one-dose screen, 48 h (100 = growth as untreated, 0 = no growth, -100 = all killed)
- Run Parameters: 10 µM
About 83,000 compounds went through this panel and 20% of them were active in at least one assay; those are over-represented in the sample as a whole.
Result Type: growth (%)

[
  {
    "Molecule": "CN(C)CCN=c1nc2c(c(N)n1-c1ccccc1)c(=S)n(-c1ccccc1)c(=S)n2-c1ccccc1",
    "Result Type": "growth",
    "Experimental Value": -39.6
  },
  {
    "Molecule": "CN(C)CCOc1nc2ccccc2c2c1-c1ccc(Cl)cc1C2=O",
    "Result Type": "growth",
    "Experimental Value": -53.6
  },
  {
    "Molecule": "CC1(C)CCC(=NNC(N)=S)CC1",
    "Result Type": "growth",
    "Experimental Value": 101
  },
  {
    "Molecule": "Cc1cc(C)c2c(n1)sc1c(Nc3ccc(Cl)cc3)ncnc12",
    "Result Type": "growth",
    "Experimental Value": 54.4
  },
  {
    "Molecule": "Cc1cn(C2CCCCO2)c(=O)nc1NO (stereo not given)",
    "Result Type": "growth",
    "Experimental Value": 101
  },
  {
    "Molecule": "CCN(CC)CCNc1ccc(CO)c2oc3cc(Cl)ccc3c(=O)c12",
    "Result Type": "growth",
    "Experimental Value": 88.3
  },
  {
    "Molecule": "N#Cc1ncc(-c2cc(F)c(F)c(F)c2)c(NC2CCCCCC2)n1",
    "Result Type": "growth",
    "Experimental Value": 91.9
  },
  {
    "Molecule": "Cn1c(N)c(N=Nc2ccc(S(=O)(=O)Nc3nccs3)cc2)c(=O)n(C)c1=O",
    "Result Type": "growth",
    "Experimental Value": 95.9
  },
  {
    "Molecule": "Cn1c([N+](=O)[O-])cnc1/C=C1\\Oc2ccccc2C1=O",
    "Result Type": "growth",
    "Experimental Value": -73.6
  },
  {
    "Molecule": "COc1cc(CNc2ccccc2C(=O)N2CCN(C(=O)c3cc(-c4cc(OC)c(OC)c(OC)c4)n4nc(-c5ccccc5)cc4n3)CC2)cc(OC)c1OC",
    "Result Type": "growth",
    "Experimental Value": 40.3
  }
]

---

This listing pairs compounds with measured growth.
- Tested on: DU-145 prostate
- Assay Protocol: NCI-60 one-dose screen, 48 h (100 = growth as untreated, 0 = no growth, -100 = all killed)
- Run Parameters: 10 µM
The panel holds about 83,000 compounds, 20% with a hit somewhere; the sample as a whole holds those more often.

[
  {
    "Chemical String": "O=C(Cc1csc2nc(-c3ccc(Cl)cc3)cn12)N/N=C/c1ccccc1O",
    "Assayed Target": "DU-145 prostate",
    "Unit Tag": "%",
    "growth": -8.65
  },
  {
    "Chemical String": "Clc1ccccc1N=Cc1ccc2c(c1)OCO2",
    "Assayed Target": "DU-145 prostate",
    "Unit Tag": "%",
    "growth": 112
  },
  {
    "Chemical String": "COc1cc(-c2cc(C(=O)N3CCN(C(=O)c4ccccc4NCc4cccs4)CC3)nc3cc(-c4ccccc4)nn23)cc(OC)c1OC",
    "Assayed Target": "DU-145 prostate",
    "Unit Tag": "%",
    "growth": 81.7
  }
]
